B1: Azoarcus group I ribozyme (parent)
chain: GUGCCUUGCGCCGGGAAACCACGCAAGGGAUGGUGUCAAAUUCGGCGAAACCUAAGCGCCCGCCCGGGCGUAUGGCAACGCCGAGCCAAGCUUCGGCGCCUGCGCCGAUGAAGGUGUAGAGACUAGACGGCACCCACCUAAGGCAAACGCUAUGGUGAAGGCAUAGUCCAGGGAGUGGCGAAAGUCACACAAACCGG

variants of: B1; assay: reverse-splicing fitness (ratio to wild type); higher = more active; in vitro selection; Mg2+ level not given
READOUT: reverse-splicing fitness
A bare number is all that is needed in reply.

As a guide, the following entries are already answered.
A111G A145C C150G C169A U176G : 0.00652
C82A A111G A120C A145C C150U C169A U176G : 0.00704
C82A A111U A120G A145U C150U C169A U176G : 0.0057
C82A A111U C150G C169U : 0.0101
C82U A111G A145C C150U U176G : 0.0185

Answer with the recorded reverse-splicing fitness of C82A A111U A120G A145C C150A C169U U176A only.
0.0189

In one line, give reported reverse-splicing fitness of the entry C82U A111U A120U C150U C169U U176C .
0.0041

Report reverse-splicing fitness, nothing else, for this variant: A120U A145U C150U C169G
0.166

Give recorded reverse-splicing fitness. C82U A111G A120C A145U C150A C169A U176C
0.00758

Data origin, for the record: the RNAGym collection of RNA variant scans (doi:10.1093/molbev/msab373)
